Where do these numbers come from? They come from patent US6737410B1.

target: SF9 affinity purified rat farnesyl protein transferase (Rattus norvegicus, UniProt Q02293+Q04631); construct: made in house; host or cells: Sf9 insect cells; assay: PFT (farnesyl protein transferase) inhibitory activity assay; type: biochemical; settings: HEPES buffer pH 7.4, without 5 mM potassium phosphate; read-out: IC50 (μM) Hepes
measured endpoint: log10(IC50) (log10 of the value in µM)

compound: CN(C(=O)[C@@H](Cc1c[nH]cn1)NC(=O)OCc1ccccc1)[C@@H](Cc1ccc(OCc2ccccc2)cc1)C(=O)NCCOCc1ccccc1 (relative stereo)
log10(IC50): 0.85
--
compound: CN(Cc1ccccc1)C(=O)N[C@@H](Cc1c[nH]cn1)C(=O)N(C)[C@@H](Cc1ccc(OCc2ccccc2)cc1)C(=O)NCC(C)(C)c1ccccc1
log10(IC50): -1.92
--
compound: CN(C(=O)[C@H](Cc1c[nH]cn1)NC(=O)OCc1ccccc1)[C@@H](Cc1ccc(OCc2ccccc2)cc1)C(=O)NCCc1ccccc1 (relative stereo)
log10(IC50): 0.15
--
compound: CN(C(=O)[C@H](Cc1cnc[nH]1)NC(=O)OCc1ccccc1)[C@@H](Cc1ccc(OCc2ccccc2)cc1)C(=O)NCC1(c2ccccc2)CCC1 (relative stereo)
log10(IC50): 0.00
--
compound: CN(C(=O)[C@H](Cc1c[nH]cn1)NC(=O)OCc1ccccc1)[C@@H](Cc1ccc(OCc2ccccc2)cc1)C(=O)NCC(C)(C)c1ccccc1
log10(IC50): -0.51
--
compound: CN(C(=O)[C@H](Cc1c[nH]cn1)NC(=O)OCc1ccccc1)[C@@H](Cc1ccc(OCc2ccccn2)cc1)C(=O)NCC(C)(C)c1ccccc1
log10(IC50): -0.42
--
compound: CN(C(=O)[C@H](Cc1cnc[nH]1)NC(=O)OCc1ccccc1)[C@@H](Cc1ccccc1)C(=O)NCC(C)(C)c1ccccc1
log10(IC50): -0.59
--
compound: CC(C)C[C@@H](C(=O)NCC(C)(C)c1ccccc1)N(C)C(=O)[C@H](Cc1cnc[nH]1)NC(=O)OCc1ccccc1
log10(IC50): 0.25
